# System: Zika virus NS2B-NS3 protease (linked construct)
# test_summary: Primary screen NINDS Rhodamine qHTS for Zika virus inhibitors (AID 1347160); further: nearly all actives have a fitted effect of over 55% in size
# measurement_parameters: purified NS2B-NS3 protease, Rhodamine110 substrate fluorescence; series mostly up to 57.1 µM
Inconclusive results are not listed. Active and inactive are the calls of the source. The call rests on the fitted dose curve; in most records, active means well fitted inhibition curve with a large enough effect; inconclusive means small, poorly fitted or top-dose-only effect; inactive means no such curve, though single readings can be large or run the other way.
Outcome codes: true (1) (active), false (0) (inactive)

>  <compound_structure_string>
CC(=O)NCCc1c[nH]c2ccccc12

>  <discrete_label>
false (0)

$$$$
>  <compound_structure_string>
O=C(O)CNC(=O)c1c(O)c2ccccc2n(Cc2ccccc2)c1=O

>  <discrete_label>
true (1)

$$$$
>  <compound_structure_string>
CCOC(=O)Nc1ccc(NCc2ccc(F)cc2)cc1N

>  <discrete_label>
false (0)

$$$$
>  <compound_structure_string>
CC(C)N(CCNC(=O)CN1CCCC1=O)C(C)C

>  <discrete_label>
false (0)

$$$$
>  <compound_structure_string>
NCCc1c[nH]c2ccccc12

>  <discrete_label>
false (0)

$$$$
>  <compound_structure_string>
CCN(CC)C(=O)c1ccc(C2=CC3(CCNCC3)Oc3cccc(O)c32)cc1

>  <discrete_label>
false (0)

$$$$

* * *

# test_summary: Primary qHTS to identify inhibitors of SARS-CoV-2 cell entry (AID 1645846); further: nearly all actives have a fitted effect of over 45% in size
# measurement_parameters: SARS-CoV-2 pseudovirus cell entry assay, luminescence; at 57.1 µM (top of the series) unless noted
Results filed as inconclusive are left out.
experimental_readout: activity change, negative = inhibition

>  <compound_structure_string>
CCN(CC)CCn1c(=O)c(Cc2ccc(OC)cc2)nc2ccccc21

>  <measured_result>
-28.6%

$$$$
>  <compound_structure_string>
CC(C)[C@]12O[C@H]1[C@@H]1O[C@]13[C@]1(O[C@H]1C[C@H]1C4=C(CC[C@@]13C)C(=O)OC4)[C@@H]2O

>  <measured_result>
-93.7%

$$$$
>  <compound_structure_string>
CC(=O)N[C@@H](CCC(N)=O)C(=O)O

>  <measured_result>
-25.1%

$$$$

* * *

# test_summary: Quantitative High-Throughput drug screen in 47 multiple myeloma cell lines against the NCATS MIPE library collection: KMS12PE_JCRB cell viability assay (AID 1918972); further: nearly all actives have a fitted effect of over 30% in size; further: potency means the concentration at half of the fitted maximal effect;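 on viability: 100% = DMSO only wells and 0% = wells with media alone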
# measurement_parameters: KMS12PE myeloma viability, CellTiter-Glo ATP, 48 h; series mostly up to 45.8 µM
Results filed as inconclusive are left out. Active and inactive are the calls of the source. The call rests on the fitted dose curve; in most records, active means well fitted cell-killing curve with a large enough effect; inconclusive means small, poorly fitted or top-dose-only effect, or effect the other way; inactive means no such curve, though single readings can be large or run the other way.
experimental_readout: Potency

>  <compound>
CC(C)(O)C(=O)Nc1ccc([N+](=O)[O-])c(C(F)(F)F)c1

>  <experimental_readout>
Potency

>  <measured_result>
23.5 µM (active)

$$$$
>  <compound>
COc1ccc2c(c1)CN(C)CC2c1ccc(Cl)c(Cl)c1 (centres undefined)

>  <experimental_readout>
Potency

>  <measured_result>
23.5 µM (active)

$$$$
>  <compound>
COC(=O)[C@@H](N)CCCN=C(N)N[N+](=O)[O-]

>  <experimental_readout>
Potency

>  <measured_result>
inactive

$$$$
>  <compound>
C[C@@H]1CC[C@@]2(OC1)O[C@H]1C[C@H]3[C@@H]4CC=C5C[C@@H](O[C@@H]6O[C@H](CO)[C@@H](O[C@@H]7O[C@@H](C)[C@H](O)[C@@H](O)[C@@H]7O)[C@H](O)[C@@H]6O[C@@H]6O[C@@H](C)[C@H](O)[C@@H](O)[C@@H]6O)CC[C@]5(C)[C@@H]4CC[C@]3(C)[C@@H]1[C@H]2C

>  <experimental_readout>
Potency

>  <measured_result>
1.32 µM (active)

$$$$
>  <compound>
C1=C2CCCN[C@H]2[C@@H]2C[C@H]1[C@@H]1CCCCN1C2

>  <experimental_readout>
Potency

>  <measured_result>
inactive

$$$$
>  <compound>
O=S(=O)(F)Cc1ccccc1

>  <experimental_readout>
Potency

>  <measured_result>
inactive

$$$$
>  <compound>
Cc1c(C(=O)Nc2cccc(C(F)(F)F)c2)cc(-c2ccccc2)n1CCCN1CCOCC1

>  <experimental_readout>
Potency

>  <measured_result>
10.5 µM (active)

$$$$
>  <compound>
C=C[C@@H]1CN2CCC1C[C@H]2[C@H](O)c1ccnc2ccccc12 (some centres undefined)

>  <experimental_readout>
Potency

>  <measured_result>
6.62 µM (active)

$$$$
>  <compound>
COc1cccc2c1[C@]13CCN(CC4CC4)[C@H](C2)[C@]1(OC)CCC(=O)C3

>  <experimental_readout>
Potency

>  <measured_result>
inactive

$$$$
>  <compound>
COC[C@H]1OC(=O)c2coc3c2[C@@]1(C)C1=C(C3=O)[C@@H]2CC[C@H](O)[C@@]2(C)C[C@@H]1OC(C)=O

>  <experimental_readout>
Potency

>  <measured_result>
6.62 µM (active)

$$$$
>  <compound>
Oc1ccc2c3c1O[C@H]1c4[nH]c5c(c4C[C@@]4(O)[C@@H](C2)N(CC2CC2)CC[C@]314)C[C@@]1(O)[C@H]2Cc3ccc(O)c4c3[C@@]1(CCN2CC1CC1)[C@H]5O4

>  <experimental_readout>
Potency

>  <measured_result>
inactive

$$$$
>  <compound>
O=[N+]([O-])c1ncc[nH]1

>  <experimental_readout>
Potency

>  <measured_result>
inactive

$$$$
>  <compound>
O=C(N[C@@H](COc1ccc2[nH]c(=O)[nH]c2c1)c1ccccc1)c1cccn(Cc2ccc(F)c(F)c2)c1=O

>  <experimental_readout>
Potency

>  <measured_result>
18.7 µM (active)

$$$$
>  <compound>
COc1cc2cc(c1Cl)N(C)C(=O)C[C@H](OC(=O)C(C)C)[C@]1(C)O[C@H]1[C@H](C)[C@@H]1C[C@@](O)(NC(=O)O1)[C@H](OC)C=CC=C(C)C2

>  <experimental_readout>
Potency

>  <measured_result>
inactive

$$$$
>  <compound>
CC1=C(O)C(=O)C=C2C1=CC=C1[C@@]2(C)CC[C@@]2(C)[C@@H]3C[C@](C)(C(=O)O)CC[C@]3(C)CC[C@]12C

>  <experimental_readout>
Potency

>  <measured_result>
1.05 µM (active)

$$$$
>  <compound>
Cc1[nH]nc2ccc(-c3cncc(OC[C@@H](N)Cc4c[nH]c5ccccc45)c3)cc12

>  <experimental_readout>
Potency

>  <measured_result>
inactive

$$$$
>  <compound>
C[C@]12CC[C@H]3[C@@H](CCC4=CC(=O)CC[C@@]43C)[C@H]1CC[C@H]2OC(=O)CCC1CCCC1

>  <experimental_readout>
Potency

>  <measured_result>
inactive

$$$$
>  <compound>
CCCCCC[C@H]1C(=O)O[C@H](C)[C@H](NC(=O)c2cccc(NC=O)c2O)C(=O)O[C@@H](C)[C@@H]1OC(=O)CC(C)C

>  <experimental_readout>
Potency

>  <measured_result>
0.469 µM (active)

$$$$
>  <compound>
O=c1cccc2n1CC1CNC[C@H]2C1

>  <experimental_readout>
Potency

>  <measured_result>
9.35 µM (active)

$$$$
>  <compound>
C[C@H]([C@H](O)CCC(C)(C)O)[C@H]1CC[C@@]2(O)C3=CC(=O)[C@@H]4C[C@@H](O)[C@@H](O)C[C@]4(C)[C@@H]3CC[C@]12C

>  <experimental_readout>
Potency

>  <measured_result>
inactive

$$$$
>  <compound>
CC(C)(O)C=CC(=O)[C@](C)(O)[C@H]1[C@H](O)C[C@]2(C)[C@@H]3CC=C4[C@@H](C=C(O)C(=O)C4(C)C)[C@]3(C)C(=O)C[C@@]12C

>  <experimental_readout>
Potency

>  <measured_result>
0.0418 µM (active)

$$$$
>  <compound>
CCc1c(C(=O)C(N)=O)c2c(OCC(=O)O)cccc2n1Cc1ccccc1

>  <experimental_readout>
Potency

>  <measured_result>
inactive

$$$$
>  <compound>
CN(C)[C@@H]1C(=O)C(C(N)=O)=C(O)[C@@]2(O)C(=O)C3=C(O)c4c(O)cccc4[C@@](C)(O)[C@H]3[C@H](O)[C@@H]12

>  <experimental_readout>
Potency

>  <measured_result>
inactive

$$$$
>  <compound>
CC(C)[C@]12O[C@@H]1[C@@H]1O[C@]13[C@]1(O[C@H]1C[C@@H]1C4=C(CC[C@@]13C)C(=O)OC4)[C@H]2O

>  <experimental_readout>
Potency

>  <measured_result>
inactive

$$$$
>  <compound>
CCCN1CCO[C@@H]2c3cc(O)ccc3OC[C@@H]21

>  <experimental_readout>
Potency

>  <measured_result>
inactive

$$$$
>  <compound>
CCOC(=O)Nc1ccc(NCc2ccc(F)cc2)cc1N

>  <experimental_readout>
Potency

>  <measured_result>
3.32 µM (active)

$$$$
>  <compound>
COc1ccc2c(c[n+](C)c3c4cc5c(cc4ccc23)OCO5)c1OC

>  <experimental_readout>
Potency

>  <measured_result>
4.69 µM (active)

$$$$
>  <compound>
NC1=NC(=O)N2CC12 (centres undefined)

>  <experimental_readout>
Potency

>  <measured_result>
10.5 µM (active)

$$$$
>  <compound>
CN1CCN(c2ccc([N+](=O)[O-])c3no[n+]([O-])c23)CC1

>  <experimental_readout>
Potency

>  <measured_result>
16.6 µM (active)

$$$$
>  <compound>
C[C@@]12OC(=O)[C@]1([C@@H](O)[C@@H]1C=CCCC1)NC(=O)[C@H]2CCCl

>  <experimental_readout>
Potency

>  <measured_result>
0.0187 µM (active)

$$$$
>  <compound>
COc1ccc(CC2NCCc3cc(OC)c(OC)cc32)cc1OC (centres undefined)

>  <experimental_readout>
Potency

>  <measured_result>
inactive

$$$$
>  <compound>
CCNC(=O)CC1N=C(c2ccc(Cl)cc2)c2cc(OC)ccc2-n2c(C)nnc21 (centres undefined)

>  <experimental_readout>
Potency

>  <measured_result>
13.2 µM (active)

$$$$
>  <compound>
COc1cc([C@@H]2c3cc4c(cc3[C@@H](O)C3COC(=O)C32)OCO4)cc(OC)c1O (some centres undefined)

>  <experimental_readout>
Potency

>  <measured_result>
0.0372 µM (active)

$$$$
>  <compound>
CCCC[N+]1(C)[C@H]2CC(OC(=O)[C@H](CO)c3ccccc3)C[C@H]1[C@H]1O[C@H]12 (some centres undefined)

>  <experimental_readout>
Potency

>  <measured_result>
inactive

$$$$
